# Test system: Klebsiella aerogenes DSM 30053
# procedure-summary: growth (OD595) fold change vs plate DMSO controls (fold change (ratio)); higher = more growth
# stated-conditions: incubation time: 27 h, anaerobic, 37 °C
Counter-ions that a name gives are not always drawn.
endpoint-name: growth

CC(COc1ccccc1)N(CCCl)Cc1ccccc1 (stereo not given) [Phenoxybenzamine hydrochloride] (20 µM) | 1.01
O=c1[nH]cc(F)c(=O)[nH]1 [5-fluorouracil] (20 µM) | 0.897
C[C@]12CC[C@@H]3c4ccc(O)cc4C[C@@H](CCCCCCCCC[S+]([O-])CCCC(F)(F)C(F)(F)F)[C@H]3[C@@H]1CC[C@@H]2O (stereo not given in full) [Fulvestrant] (20 µM) | 1.03
CCCCNc1cc(C(=O)O)cc(S(N)(=O)=O)c1Oc1ccccc1 [Bumetanide] (20 µM) | 1
O=C(C1CCCCC1)N1CC(=O)N2CCc3ccccc3C2C1 (stereo not given) [Praziquantel] (20 µM) | 0.99
CCC(NC(C)C)C(O)c1ccc(O)c(O)c1 (stereo not given) [Isoetharine mesylate salt] (20 µM) | 0.99
CC(C)(C)C(=O)OCOC(=O)[C@@H]1N2C(=O)[C@@H](NC(=O)[C@H](N)c3ccccc3)[C@H]2SC1(C)C [Pivampicillin] (20 µM) | 0.986
CC(C)(C)CC(C)(C)c1ccc(OCCOCC[N+](C)(C)Cc2ccccc2)cc1 [Benzethonium chloride] (20 µM) | 1.02
CN(C)CCCN1c2ccccc2CCc2ccc(Cl)cc21 [Clomipramine hydrochloride] (20 µM) | 0.972
COc1ccccc1Oc1c(NS(=O)(=O)c2ccc(C(C)(C)C)cc2)nc(-c2ncccn2)nc1OCCO [Bosentan] (20 µM) | 1.23
NC(=O)c1ncn([C@@H]2O[C@H](CO)[C@@H](O)[C@H]2O)c1O [Mizoribine] (20 µM) | 1.06
CC(C)[N+](C)(CCOC(=O)C1c2ccccc2Oc2ccccc21)C(C)C [Propantheline bromide] (20 µM) | 1
Clc1ccccc1CN1CCc2sccc2C1 [Ticlopidine hydrochloride] (20 µM) | 0.958
COc1ccc(-c2cc(=O)c3c(O)cc(O[C@@H]4O[C@H](CO[C@@H]5O[C@@H](C)[C@H](O)[C@@H](O)[C@H]5O)[C@@H](O)[C@H](O)[C@H]4O)cc3o2)cc1O [Diosmin] (20 µM) | 1.01
CCNC(=O)CCC/C=C\C[C@@H]1[C@@H](/C=C/[C@@H](O)CCc2ccccc2)[C@H](O)C[C@@H]1O [Bimatoprost] (20 µM) | 1.02

====

Measured fold change of Cadaverine concentration values are reported for all entries that follow.
# Tested on: Escherichia coli IAI1
# procedure-summary: fold change of Cadaverine concentration vs plate DMSO controls (fold change (ratio)); higher = more amine produced, active = hit call of the paper (significant change in both replicates, either direction)
# stated-conditions: incubation time: 27 h, anaerobic, 37 °C
endpoint-name: fold change of Cadaverine concentration

CC[C@H]1OC(=O)[C@H](C)[C@@H](O[C@H]2C[C@@](C)(OC)[C@@H](O)[C@H](C)O2)[C@H](C)[C@@H](O[C@@H]2O[C@H](C)C[C@H](N(C)C)[C@H]2O)[C@](C)(O)C[C@@H](C)C(=O)[C@H](C)[C@@H](O)[C@]1(C)O [Erythromycin] (20 µM) | 0.942
CCc1ccc(CCOc2ccc(CC3SC(=O)NC3=O)cc2)nc1 (stereo not drawn) [Pioglitazone] (20 µM) | 0.968
C[C@H]1C[C@@H]2[C@H]([C@@H](O)C[C@@]3(C)[C@H]2CC[C@]3(O)C(=O)CO)[C@@]2(C)C=CC(=O)C=C12 [Methylprednisolone, 6-alpha] (20 µM) | 1.03

====

# System: Clostridium sporogenes DSM 1664
# procedure-summary: growth (OD595) fold change vs plate DMSO controls (fold change (ratio)); higher = more growth
# stated-conditions: incubation time: 27 h, anaerobic, 37 °C
Structures can show the parent of a compound that is named as a salt.
Listed here are compounds together with their documented growth.
endpoint-name: growth

c1ccc(C2CN3CCSC3=N2)cc1 (configuration not stated) [Tetramisole hydrochloride] (20 µM) | 0.855
CC(C)(C)CC(C)(C)c1ccc(O)c(Cc2ccc(Cl)cc2Cl)c1 [Clofoctol] (20 µM) | 0.000434
CC(C)C(=O)c1c(C(C)C)nn2ccccc12 [Ibudilast] (20 µM) | 0.946
N=C(N)NCc1cccc(I)c1 [Iobenguane sulfate] (20 µM) | 0.944
CC(C)COCC(CN(Cc1ccccc1)c1ccccc1)N1CCCC1 (configuration not stated) [Bepridil hydrochloride] (20 µM) | 0.909
Cc1nn(C)c(Oc2ccccc2)c1/C=N/OCc1ccc(C(=O)OC(C)(C)C)cc1 (20 µM) | 1.15
CCCNCC(O)COc1ccccc1C(=O)CCc1ccccc1 (configuration not stated) [Propafenone hydrochloride] (20 µM) | 1.01
Oc1cc(O)c2c(c1)O[C@H](c1ccc(O)c(O)c1)[C@@H](O)C2 [Cianidanol] (20 µM) | 1.04
Cc1cc(/C=C/c2ccc3cc(N(C)C)ccc3[n+]2C)c(C)n1-c1ccccc1 [Pyrvinium pamoate] (20 µM) | 1.21
Cc1cccc(Nc2ccncc2S(=O)(=O)NC(=O)NC(C)C)c1 [Torsemide] (20 µM) | 1.09
OC[C@H]1O[C@@H](O[C@H]2[C@H](O)[C@@H](O)[C@H](O)O[C@@H]2CO)[C@H](O)[C@@H](O)[C@H]1O [Lactose] (50 µM) | 0.993
CC#CCn1c(N2CCC[C@@H](N)C2)nc2c1c(=O)n(Cc1nc(C)c3ccccc3n1)c(=O)n2C [Linagliptin] (20 µM) | 1.01
CCCCNC(=O)NS(=O)(=O)c1ccc(C)cc1 [Tolbutamide] (20 µM) | 0.926
NC(=O)c1ncn([C@@H]2O[C@H](CO)[C@@H](O)[C@H]2O)c1O [Mizoribine] (20 µM) | 0.99
CCn1nc(C(=O)O)c(=O)c2cc3c(cc21)OCO3 [Cinoxacin] (20 µM) | 0.547
CCCCNc1ccc(C(=O)OCCOCCOCCOCCOCCOCCOCCOCCOCCOC)cc1 [Benzonatate] (20 µM) | 0.953
Cc1cn[nH]c1 [Fomepizole] (20 µM) | 0.879

====

# System: Ruminococcus gnavus DSM 108212
# procedure-summary: fold change of Tryptamine concentration vs plate DMSO controls (fold change (ratio)); higher = more amine produced, active = hit call of the paper (significant change in both replicates, either direction)
# stated-conditions: incubation time: 27 h, anaerobic, 37 °C
Where a name gives a salt, the structure may show the parent alone.
Known fold change of Tryptamine concentration of a selection of compounds
endpoint-name: fold change of Tryptamine concentration

NS(=O)(=O)c1cc(C2(O)NC(=O)c3ccccc32)ccc1Cl (stereo not given) [Chlorthalidone] (20 µM) | 1.03 (inactive)
C[C@H]1C[C@H]2[C@@H]3CCC4=CC(=O)C=C[C@]4(C)[C@@]3(F)[C@@H](O)C[C@]2(C)[C@@]1(O)C(=O)CO [Betamethasone] (20 µM) | 1.01 (inactive)
Cc1nc(=O)c2cc(CN(C)c3ccc(C(=O)N[C@@H](CCC(=O)O)C(=O)O)s3)ccc2[nH]1 [Raltitrexed] (20 µM) | 1.06 (inactive)
CCOC(=O)[C@H](CCc1ccccc1)N[C@@H](C)C(=O)N1[C@H](C(=O)O)C[C@H]2CCCC[C@@H]21 [Trandolapril] (20 µM) | 1.02 (inactive)
CC(=O)O[C@]1(C(C)=O)CC[C@H]2[C@@H]3C=C(C)C4=CC(=O)CC[C@]4(C)[C@H]3CC[C@@]21C [Megestrol acetate] (20 µM) | 1.04 (inactive)
COCC(=O)Nc1c(I)c(C(=O)NCC(O)CO)c(I)c(C(=O)N(C)CC(O)CO)c1I (stereo not given) [Iopromide] (20 µM) | 1.11 (inactive)
NC(=O)c1cc[n+](CC2=C(C(=O)[O-])N3C(=O)[C@@H](NC(=O)[C@@H](c4ccccc4)S(=O)(=O)O)[C@H]3SC2)cc1 [Cefsulodin sodium salt] (20 µM) | 0.796 (active)
Cn1nnc2c(C(N)=O)ncn2c1=O [Temozolomide] (20 µM) | 1.02 (inactive)
CCOc1ccccc1OCCN[C@H](C)Cc1ccc(OC)c(S(N)(=O)=O)c1 [(R)-Tamsulosin hydrochloride] (20 µM) | 1.02 (inactive)
CC(=O)OC[C@H]1O[C@@H]([S-])[C@H](OC(C)=O)[C@@H](OC(C)=O)[C@@H]1OC(C)=O.CCP(CC)CC.[Au+] [Auranofin] (20 µM) | 0.05 (active)
Cc1cn[nH]c1 [Fomepizole] (20 µM) | 1.01 (inactive)
CC[N+](C)(C)Cc1ccccc1Br [Bretylium tosylate] (20 µM) | 1.03 (inactive)
CCOc1ccc(NC(N)=O)cc1 [(4-Ethoxyphenyl)urea] (50 µM) | 0.999 (inactive)
CN1CCN(CC(=O)N2c3ccccc3C(=O)Nc3cccnc32)CC1 [Pirenzepine dihydrochloride] (20 µM) | 0.993 (inactive)
Cc1c(F)c(N2CCNC(C)C2)cc2c1c(=O)c(C(=O)O)cn2C1CC1 (stereo not given) [Grepafloxacin] (20 µM) | 0.697 (inactive)
